All values here come from the NIST ThermoML archive (doi:10.1016/j.fluid.2005.11.020).

conditions: 293.2 K; 101.33 kPa; Liquid; Vibrating tube method
Kindly supply the reported mass density values for the records listed here.
Answers are plain numbers, in kg/m3.

Here are 3 compounds together with their reported answers.
>>> observed("Clc1ccccc1")
1106.07
>>> observed("Brc1ccccc1")
1495.28
>>> observed("CCCCCCC")
683.53

Give mass density for the following compound: Fc1ccccc1
1022.27
